Catalogue of % pSTAT3+ Jurkat cells, 0.1 nM rhIL-21 + 2.5209 nM antibody values
# System name: recombinant human IL-21 (rhIL-21) (human, UniProt Q9HBE4 30-162, limits assumed)
# Sequence (Q9HBE4 30-162 limits assumed): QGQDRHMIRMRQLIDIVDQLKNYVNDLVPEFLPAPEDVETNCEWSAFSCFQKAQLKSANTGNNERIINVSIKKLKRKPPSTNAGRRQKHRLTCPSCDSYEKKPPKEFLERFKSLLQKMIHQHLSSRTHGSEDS
# Measurement notes: cell-based or functional assay
Numbers only; they are read as %.

Exercise: Request the reported % pSTAT3+ Jurkat cells, 0.1 nM rhIL-21 + 2.5209 nM antibody associated with ZAP122 (antibody, human IgG1, V domains shown) VH: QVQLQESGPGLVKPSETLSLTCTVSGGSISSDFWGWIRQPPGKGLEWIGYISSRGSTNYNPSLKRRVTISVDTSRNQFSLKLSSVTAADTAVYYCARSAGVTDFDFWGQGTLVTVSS VL: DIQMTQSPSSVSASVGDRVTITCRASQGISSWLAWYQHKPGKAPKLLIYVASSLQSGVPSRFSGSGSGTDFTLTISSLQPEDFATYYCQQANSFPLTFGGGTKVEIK
Solution: 6.78

Exercise: Then what about the binder LKK631 (antibody, human IgG1, V domains shown) VH: EVQLQQFGAEVVKPGASVKMSCKASGYTFTDYNMNWVKQSHEKSLEWIGDIHPKFHSTNYNQKFKGKATLTIDTSSSTAYMELRNLTSEDTAVYYCARVGNYVYFVMDYWGQGTSVTVSS VL: SIVMTQTPKFLLVSAGDRVTITCKASQSVSNDVAWYQQKPGQSPKLLIYYASNRYTGVPDRFSGSGYGTDFTFTISTVQAEDLAVYFCQQDYTSPWTFGGGTKLEIK ?
Solution: 55.1

Exercise: Then what about the binder MIZ926 (antibody, human IgG1, V domains shown) VH: EVQLVESGGGSVKPGGSLKLSCAASGLTFSHYYMYWVRQTPEKRLEWVAIISDGGDYTHYSDSVKGRFTISRDNAKNNLYLQMSSLQSEDTAMYYCAGDYGYGYEGWFAYWGQGTLVTVST VL: DIVMTQSQKFMSTSVGDRVSVTCKASQNVDTYVAWYQQKPGQSPKALIYSTSYRYSGVPDRFTGSGSGTDFTLTISNVQSEDLAEYFCQQYNSYPWTFGGGTKLEIK ?
Solution: 64.5

Exercise: Then what about the binder FYP014 (antibody, human IgG1, V domains shown, human IgG1; also called EP3103813A1 clone 366.328.10.63) VH: EVQLVESGGGLVKPGGSLRLSCAASGFIFSSYSMNWVRQAPGKGLEWVSSITSGSYYIHYADSVKGRFTISRDNAKNSLYLQMNSLRAEDTAVYYCVRERGWGYYGMDVWGQGTTVTVSS VL: AIQLTQSPSSLSASVGDRVTITCRASQDIDSALAWYQQKPGKAPKILIHDASSLESGVPSRFSGSGSGTDFTLTISSLQPEDFATYYCQQFNSYPYTFGQGTKLEIK ?
Solution: 5.16

Recorded values, source patent EP4671273A1.
